Data provenance is the supplement of paper PMC5908809.

Parameter: percent inhibition of viability. Scope: all listed entries.
system: normal primary NK cells, pool 2 (3 donors) (IL-2 2.5 ng/mL); assay: percent inhibition of viability; higher = more inhibition; details: 72 h; 10000 nM;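 note: normalised to DMSO-only wells as negative and benzethonium chloride as positive control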

molecule	percent inhibition of viability, %
O=C(/C=C/c1cccc(S(=O)(=O)Nc2ccccc2)c1)NO [Belinostat] (max concentration tested 10000 nM)	95.6
O=C(c1ccc(OCCN2CCCCC2)cc1)c1c(-c2ccc(O)cc2)sc2cc(O)ccc12 [Raloxifene] (max concentration tested 10000 nM)	29.1
CN1CCN(c2ccc3nc(-c4c(N)c5c(F)cccc5[nH]c4=O)[nH]c3c2)CC1 [Dovitinib] (max concentration tested 10000 nM)	19.6
CC[C@H](Nc1ncnc2[nH]cnc12)c1nc2cccc(F)c2c(=O)n1-c1ccccc1 [Idelalisib] (max concentration tested 10000 nM)	35.6
C[C@@H](Oc1cc(-n2cnc3ccc(CN4CCN(C)CC4)cc32)sc1C(N)=O)c1ccccc1C(F)(F)F (max concentration tested 10000 nM)	97.1
CNC(=O)c1ccc(N2C(=S)N(c3cnc(C#N)c(C(F)(F)F)c3)C(=O)C23CCC3)cc1F [ARN 509] (max concentration tested 10000 nM)	8.97

---

Parameter: percent inhibition of viability. Scope: all listed entries.
test system: NK-92 (IL-2 2.5 ng/mL); experiment: percent inhibition of viability; higher = more inhibition; settings: 72 h; 10 nM

compound	unitsSymbol	percent inhibition of viability
CC[C@H](Nc1ncnc2[nH]cnc12)c1nc2cccc(F)c2c(=O)n1-c1ccccc1 [Idelalisib] (max concentration tested 10000 nM)	%	15.2
N#Cc1ccc(COC[C@H]2O[C@@H](n3c(NCc4ccc(Cl)c(Cl)c4)nc4c(N)ncnc43)[C@H](O)[C@@H]2O)cc1 (max concentration tested 10000 nM)	%	4.51
Cc1cc(C)c(CNC(=O)c2cc(-c3ccc(CN4CCOCC4)cc3)cc3c2cnn3C2CCCC2)c(=O)[nH]1 [EPZ-5687] (max concentration tested 10000 nM)	%	-17.5
Nc1cc(C(F)(F)F)c(-c2cc(N3CCOCC3)nc(N3CCOCC3)n2)cn1 [Buparlisib] (max concentration tested 10000 nM)	%	-3.67
COc1cc(C(=O)O)ccc1NC(=O)[C@@H]1N[C@@H](CC(C)(C)C)[C@](C#N)(c2ccc(Cl)cc2F)[C@H]1c1cccc(Cl)c1F [RG7388] (max concentration tested 10000 nM)	%	-12.5
C[C@]1(c2nc3c(C(N)=O)cccc3[nH]2)CCCN1 [Veliparib] (max concentration tested 10000 nM)	%	4.92
CNC(=O)CN1CCC(Oc2cc3c(Nc4cccc(Cl)c4F)ncnc3cc2OC)CC1 [Sapitinib] (max concentration tested 1000 nM)	%	7.58
CO[C@H]1C[C@@H]2CC[C@@H](C)[C@@](O)(O2)C(=O)C(=O)N2CCCC[C@H]2C(=O)O[C@H]([C@H](C)C[C@@H]2CC[C@@H](OP(C)(C)=O)[C@H](OC)C2)CC(=O)[C@H](C)/C=C(\C)[C@@H](O)[C@@H](OC)C(=O)[C@H](C)C[C@H](C)/C=C/C=C/C=C/1C [Ridaforolimus] (max concentration tested 100 nM)	%	12.4
COCC(=O)NC/C=C/c1ccc2ncnc(Nc3ccc(Oc4ccc(C)nc4)c(C)c3)c2c1 (max concentration tested 10000 nM)	%	8.37
Nc1ncn([C@@H]2O[C@H](CO)[C@@H](O)[C@H]2O)c(=O)n1 [Azacitidine] (max concentration tested 10000 nM)	%	-12.4
Cc1ccccc1C(C(=O)NC1CCCCC1)N(C(=O)Cn1ccnc1C)c1cccc(F)c1 (stereo unspecified) [AGI-5198] (max concentration tested 10000 nM)	%	-5.86
